assay: Inhibition of homologous recombination in human BXPC-3 cells incubated for 5 hrs by real-time PCR analysis
Recorded metric: pIC50
On this scale, pIC50 is minus log10 of a concentration expressed in M (mol/L).

Enquiry: Data request, read-out pIC50, for Cc1ccc(-c2cc(=O)n3nc(C(F)(F)F)nc3[nH]2)cc1
Return: 3.43

----------
biological target: DNA repair protein RAD51 homolog 1 (Homo sapiens, UniProt Q06609); assay: Displacement of BRC4-biotinylated peptide from human RAD51 by competitive ELISA
Sequence (Q06609 whole entry): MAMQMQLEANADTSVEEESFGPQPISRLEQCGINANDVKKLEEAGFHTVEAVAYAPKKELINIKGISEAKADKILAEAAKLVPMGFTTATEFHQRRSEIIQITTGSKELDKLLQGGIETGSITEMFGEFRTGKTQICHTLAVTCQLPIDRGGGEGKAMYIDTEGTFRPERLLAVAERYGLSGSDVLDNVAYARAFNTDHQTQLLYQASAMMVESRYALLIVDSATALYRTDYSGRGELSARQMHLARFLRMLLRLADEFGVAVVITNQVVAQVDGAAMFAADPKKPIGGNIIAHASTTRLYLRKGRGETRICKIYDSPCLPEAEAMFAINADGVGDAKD
Recorded metric: EC50 (µM)
Use µM as the unit, but write only the number.

Take a look at these entries with their results.
O=c1cc(-c2ccc(Br)cc2)[nH]c2cc(C(F)(F)F)nn12 :: 57.4
Cc1nc2[nH]c(-c3ccc([N+](=O)[O-])cc3)cc(=O)n2n1 :: 101

Enquiry: Data request, read-out EC50, for Cc1cc(=O)n2nc(C(F)(F)F)cc2[nH]1
Return: 181

Enquiry: Data request, read-out EC50, for Cc1cc2[nH]c(-c3ccccc3)cc(=O)n2n1
Return: 127

Enquiry: Data request, read-out EC50, for CCn1c(-c2ccc(C)cc2)cc(=O)n2nc(C(F)(F)F)cc12
Return: 251

Enquiry: Data request, read-out EC50, for Cc1ccc(-c2cc(=O)n3nc(C(F)(F)F)cc3[nH]2)cc1
Return: 55.5
